Attribute: protein stability index
B1: ZNF649 (parent)
chain: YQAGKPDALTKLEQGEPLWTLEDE

Variants of: B1
assayMethodText: protein stability index of a GFP-peptide fusion (GPS, HEK-293T) (PSI 1-6); higher = more stable;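 also: lentivirally expressed fusions sorted by FACS into six bins by GFP to DsRed ratio, PSI derived from sequencing read proportions per bin multiplied by bin number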
experimentalSetup: c terminus: a fixed tail appended
Field format: numeric only.

Sample records with protein stability index:
P17K | 3.97
E22N | 3.95

For the next question, use this variant.
(Q) Fill in: protein stability index of L9H is ___
(A) 4.04

These measurements were taken from the supplement of paper PMC10567573.
